Data provenance is patent US20130224224A1.

- Assayed Target: T1, human CX3CR1 (human, UniProt P49238 1-355)
- T1 construct: overexpressed on CHO, BA/F3 or HEK293T cells; also called huCX3CR1; hCX3CR1
- T1 sequence: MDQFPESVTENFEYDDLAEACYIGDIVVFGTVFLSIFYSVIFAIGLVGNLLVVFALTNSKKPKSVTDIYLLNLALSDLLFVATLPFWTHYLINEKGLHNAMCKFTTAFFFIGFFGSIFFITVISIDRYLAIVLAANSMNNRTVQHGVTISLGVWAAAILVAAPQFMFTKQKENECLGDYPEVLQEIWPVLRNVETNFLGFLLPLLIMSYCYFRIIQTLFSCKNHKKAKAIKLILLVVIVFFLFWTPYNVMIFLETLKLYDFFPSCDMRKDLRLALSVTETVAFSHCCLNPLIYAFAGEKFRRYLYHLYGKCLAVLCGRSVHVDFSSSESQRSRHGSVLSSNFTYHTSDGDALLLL
- Assay Overview: A647-fractalkine competition FACS, HEK293T human CX3CR1
Measurement Name: pIC50
The value called pIC50 is obtained by taking minus log10 of the concentration in mol/L.

So what does the record say about pIC50 for CX3CR1BII018 (VHH, A647 label where used as labeled competitor (Example 14), expressed in E. coli as described for the monovalent VHHs; also called A647-018; A647 labeled CX3CR1BII018) EVQLVESGGGSVQAGESLRLSCAASGSIFSSNAMAWYRQAPGKRRDLVAAINSVGVTKYADSVKGRFTISRDNAKNTVYLQMNSLKPEDTAVYYCTSDPRRGWDTRYWGQGTQVTVSSGGGGSGGGGSGGGGSGGGGSGGGGSGGGGSGGGGSEVQLVESGGGSVQAGESLRLSCAASGSIFSSNAMAWYRQAPGKRRDLVAAINSVGVTKYADSVKGRFTISRDNAKNTVYLQMNSLKPEDTAVYYCTSDPRRGWDTRYWGQGTQVTVSS ?
10.52

Reported pIC50, binder CX3CR1BII019 (VHH, expressed in E. coli as described for the monovalent VHHs) EMQLVESGGGSVQAGESLRLSCAASGSIFSSNAMAWYRQAPGKQRDLVALINSVGITKYADSVKGRFTISRDNAKNTVYLQMNSLKPEDTAVYYCTSDGRRGWDTRYWGQGTQVTVSSGGGGSGGGGSGGGGSGGGGSGGGGSGGGGSGGGGSEMQLVESGGGSVQAGESLRLSCAASGSIFSSNAMAWYRQAPGKQRDLVALINSVGITKYADSVKGRFTISRDNAKNTVYLQMNSLKPEDTAVYYCTSDGRRGWDTRYWGQGTQVTVSS : ____
9.54
